# target.entity: FLAG-Ago1 (Drosophila melanogaster, UniProt A1Z9J5 1-950)
# Sequence (A1Z9J5 entry or part of it): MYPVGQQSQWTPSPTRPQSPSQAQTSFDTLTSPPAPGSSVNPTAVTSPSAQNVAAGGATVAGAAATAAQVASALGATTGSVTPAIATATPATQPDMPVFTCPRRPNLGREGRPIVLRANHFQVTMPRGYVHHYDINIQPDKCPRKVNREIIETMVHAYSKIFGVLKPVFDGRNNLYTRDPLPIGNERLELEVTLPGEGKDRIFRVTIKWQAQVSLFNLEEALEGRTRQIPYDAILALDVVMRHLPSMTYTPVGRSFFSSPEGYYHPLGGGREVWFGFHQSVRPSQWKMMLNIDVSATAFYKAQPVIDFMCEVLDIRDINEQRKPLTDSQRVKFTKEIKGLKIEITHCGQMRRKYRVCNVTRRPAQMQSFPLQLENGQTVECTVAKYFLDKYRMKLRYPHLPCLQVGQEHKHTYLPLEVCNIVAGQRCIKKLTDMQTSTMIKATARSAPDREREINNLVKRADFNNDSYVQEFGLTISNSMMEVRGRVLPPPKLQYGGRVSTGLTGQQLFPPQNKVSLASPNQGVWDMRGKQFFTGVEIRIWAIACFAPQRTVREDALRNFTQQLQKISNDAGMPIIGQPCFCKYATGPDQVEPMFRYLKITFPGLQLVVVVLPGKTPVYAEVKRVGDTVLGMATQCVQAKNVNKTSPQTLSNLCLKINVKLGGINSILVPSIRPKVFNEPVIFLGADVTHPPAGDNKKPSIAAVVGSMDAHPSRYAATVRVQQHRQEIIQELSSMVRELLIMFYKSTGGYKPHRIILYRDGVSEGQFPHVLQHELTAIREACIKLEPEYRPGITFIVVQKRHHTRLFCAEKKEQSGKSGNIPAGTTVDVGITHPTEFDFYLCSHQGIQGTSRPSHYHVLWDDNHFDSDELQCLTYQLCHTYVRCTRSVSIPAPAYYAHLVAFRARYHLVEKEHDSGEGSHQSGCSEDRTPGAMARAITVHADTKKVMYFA
# protocol.details: RBNS; let-7 guide; RBNS: 20 mM HEPES-KOH pH 7.9, 100 mM KOAc, 3.5 mM Mg(OAc) (magnesium acetate), 0.05% CHAPS, 2 mM DTT, 8% glycerol, BSA, tRNA, 25 C 2 h; filter binding: 25 mM HEPES-KOH pH 7.9, 110 mM KOAc, 3.5 mM magnesium acetate, 2 mM DTT, BSA, tRNA, 8% glycerol, 25 C 2 h; competition: 18 mM HEPES-KOH pH 7.4, 100 mM KOAc, 3 mM magnesium acetate, 5 mM DTT, 0.01% IGEPAL, tRNA, 25 C 1 h
# condition.summary: protein: recombinant; tags: FLAG; guide g2-g8 + t1A; site in 20-nt random RBNS library
observation.type: Kd (pM)
The answer is to be given in pM; state only the numeric part.

[ask] State the recorded Kd for this entry: let-7 / 8mer (dsRNA, guide 5' phosphate) RNA 1: UGAGGUAGUAGGUUGUAUAGU RNA 2: CUACCUCA
[reply] 1.73
